system: OVCAR-8 ovarian; test: NCI tumour cell line growth inhibition, 48 h
measured_metric: log10 TGI (log10 of the value in µM)
Record value = log10 of TGI given in µM.

Record excerpt, results attached:
In: I have this compound here, `COc1ccc(/C=N\O[Si](C)(C)C(C)(C)C)cc1O[Si](C)(C)C(C)(C)C` , and I need its recorded log10 TGI.
Out: 1.66

In: I have this compound here, `Cc1ccc(S(=O)(=O)Nc2cc(Sc3ccccc3)c(O)c3ccccc23)cc1` , and I need its recorded log10 TGI.
Out: 0.77

In: I have this compound here, `CCOC(=O)/C(=N/Nc1ccc(Cl)cc1)N1C(=S)C=C(C)NN(C)C1=S` , and I need its recorded log10 TGI.
Out: 1.86

In: I have this compound here, CC1CC(=O)c2c(ccc3c2C(=O)c2cccc(O)c2C3=O)C1 (configuration not stated) , and I need its recorded log10 TGI.
Out: 1.05

New cases:
In: I have this compound here, `BrC1=CN2C[n+]3cc(Br)c4ccccc4c3N=C2c2ccccc21` , and I need its recorded log10 TGI.
Out: 1.59

---

system: UO-31 renal; test: NCI tumour cell line growth inhibition, 48 h
Listing of entries alongside the reported TGI.

Record excerpt, results attached:
In: I have this molecule here, COC1(Cc2ccccc2)C(=O)c2ccccc2N1C(C)=O (stereo not drawn) , and I need its recorded TGI.
Out: > 100 µM

In: I have this molecule here, C=CCC1C2CCC(O[Si](C(C)C)(C(C)C)C(C)C)(C(C(=O)OC)C2)C1O (stereo not drawn) , and I need its recorded TGI.
Out: > 100 µM

In: I have this molecule here, `CSc1nc(C)c(CCCl)c(Cl)n1` , and I need its recorded TGI.
Out: > 100 µM

In: I have this molecule here, `Cc1cc(C#N)c(Nc2ccccc2[N+](=O)[O-])s1` , and I need its recorded TGI.
Out: > 100 µM

In: I have this molecule here, CC(C)c1cccc(C(C)C)c1NC(=O)C(=O)C1SC(=S)NC1=O (stereo not drawn) , and I need its recorded TGI.
Out: > 100 µM

New cases:
In: I have this molecule here, `CNc1ncc2cc(Oc3ccc(F)cc3F)c(=O)n(C)c2n1` , and I need its recorded TGI.
Out: > 25 µM

In: I have this molecule here, `NS(=O)(=O)c1ccc(NC(=O)c2cccc3c(Nc4ccc(S(N)(=O)=O)cc4)c4ccccc4nc23)cc1` , and I need its recorded TGI.
Out: > 100 µM

In: I have this molecule here, CCSC12CC3c4cccc5c4C(CN5C(=O)c4ccccc4)CC3(O1)N(C)C2=O (stereo not drawn) , and I need its recorded TGI.
Out: > 100 µM

In: I have this molecule here, `Cc1cc(-c2ccc(C(=O)C(c3ccccc3)(c3ccccc3)c3ccccc3)[nH]2)on1` , and I need its recorded TGI.
Out: 30.2 µM

In: I have this molecule here, `Nc1cc(N)c(N=Nc2cccc3c(S(=O)(=O)O)cccc23)cc1N=Nc1cc([N+](=O)[O-])ccc1O` , and I need its recorded TGI.
Out: > 100 µM

In: I have this molecule here, `CC1=C(C(=O)Nc2ccccc2C)C(c2ccccc2C)C(C(=O)Nc2ccccc2C)=C(C)N1` , and I need its recorded TGI.
Out: 30.2 µM

---

Listing of entries alongside the reported TGI.
tested on: HCT-116 colon; experiment: NCI tumour cell line growth inhibition, 48 h

Record excerpt, results attached:
In: I have this molecule here, `COC(=O)Nc1nc2ccc(S(=O)(=O)c3ccc(NC(=O)Nc4cc(C(F)(F)F)ccc4F)cc3)cc2[nH]1` , and I need its recorded TGI.
Out: > 25 µM

In: I have this molecule here, `Cc1cc(C)nc(NS(=O)(=O)c2ccc(NC(=O)c3cccc4c(N)c5ccccc5nc34)cc2)n1` , and I need its recorded TGI.
Out: > 100 µM

In: I have this molecule here, O=C(CC(=O)C1CCOC1=O)C(=O)Nc1ccc(Cl)cc1 (configuration not stated) , and I need its recorded TGI.
Out: > 100 µM

New cases:
In: I have this molecule here, `COc1nc(C)nc2c1ncn2Cc1ccccc1` , and I need its recorded TGI.
Out: > 100 µM

In: I have this molecule here, C#CC(O)Cc1ccc(OC)c2occc12 (configuration not stated) , and I need its recorded TGI.
Out: > 100 µM

The measured values listed here are drawn from PubChem BioAssay (NCI).
